Give measured normalized RNA/DNA level with ligand (log10) for each item. Keep answers brief.
B1: library; a variant is named by its letters at N, in order (parent)
chain: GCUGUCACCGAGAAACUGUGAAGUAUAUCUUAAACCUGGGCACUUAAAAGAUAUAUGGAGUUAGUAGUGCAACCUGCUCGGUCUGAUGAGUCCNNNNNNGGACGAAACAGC

# Variants of: B1
# protocolDescription: normalized RNA/DNA level with ligand (relative to sTRSVctl = 100) (log10 (% of sTRSVctl)); HEK293T; ligand: cyclic di-GMP (c-di-GMP-II aptamer); ligand concentration (+) RNA-Seq: 1 mM; higher = less ribozyme self-cleavage, higher mRNA level
# conditionDescription: reporter: mCherry (pCS4076), ligand present: yes
Give the value as a plain number.

Inquiry: Return normalized RNA/DNA level with ligand (log10) for the following variant: `UUUUGC`
Reply text: 1.85

Inquiry: Return normalized RNA/DNA level with ligand (log10) for the following variant: `UGUCCA`
Reply text: 1.87

Inquiry: Return normalized RNA/DNA level with ligand (log10) for the following variant: `UAAGUA`
Reply text: 1.78

Inquiry: Return normalized RNA/DNA level with ligand (log10) for the following variant: `CGCACU`
Reply text: 1.71

Inquiry: Return normalized RNA/DNA level with ligand (log10) for the following variant: `GUAAUU`
Reply text: 1.78

Inquiry: Return normalized RNA/DNA level with ligand (log10) for the following variant: `ACAGGA`
Reply text: 1.41

Inquiry: Return normalized RNA/DNA level with ligand (log10) for the following variant: `ACUACA`
Reply text: 1.73

Inquiry: Return normalized RNA/DNA level with ligand (log10) for the following variant: `UUAUAU`
Reply text: 1.8

Inquiry: Return normalized RNA/DNA level with ligand (log10) for the following variant: `AUCCUG`
Reply text: 1.78

Inquiry: Return normalized RNA/DNA level with ligand (log10) for the following variant: `AGAAGC`
Reply text: 1.74

Inquiry: Return normalized RNA/DNA level with ligand (log10) for the following variant: `UUUACU`
Reply text: 1.88

Inquiry: Return normalized RNA/DNA level with ligand (log10) for the following variant: `ACCACC`
Reply text: 1.76

Inquiry: Return normalized RNA/DNA level with ligand (log10) for the following variant: `ACACUA`
Reply text: 1.66

Inquiry: Return normalized RNA/DNA level with ligand (log10) for the following variant: `AAGUAU`
Reply text: 1.8

Inquiry: Return normalized RNA/DNA level with ligand (log10) for the following variant: `AAACCU`
Reply text: 1.84

Inquiry: Return normalized RNA/DNA level with ligand (log10) for the following variant: `CGAUCU`
Reply text: 1.7

Inquiry: Return normalized RNA/DNA level with ligand (log10) for the following variant: `GCCGCG`
Reply text: 1.92

Inquiry: Return normalized RNA/DNA level with ligand (log10) for the following variant: `AACCGA`
Reply text: 1.61

Inquiry: Return normalized RNA/DNA level with ligand (log10) for the following variant: `CCGAGA`
Reply text: 1.66

Inquiry: Return normalized RNA/DNA level with ligand (log10) for the following variant: `AGCCGC`
Reply text: 1.89

Inquiry: Return normalized RNA/DNA level with ligand (log10) for the following variant: `UCAGAU`
Reply text: 1.67

Inquiry: Return normalized RNA/DNA level with ligand (log10) for the following variant: `UAUCGC`
Reply text: 1.83

Inquiry: Return normalized RNA/DNA level with ligand (log10) for the following variant: `UAAUUU`
Reply text: 1.87

Inquiry: Return normalized RNA/DNA level with ligand (log10) for the following variant: `AUAGCG`
Reply text: 1.85

Inquiry: Return normalized RNA/DNA level with ligand (log10) for the following variant: `UCCCAU`
Reply text: 1.85

Inquiry: Return normalized RNA/DNA level with ligand (log10) for the following variant: `GGCGUG`
Reply text: 1.86

Inquiry: Return normalized RNA/DNA level with ligand (log10) for the following variant: `AUAAAU`
Reply text: 1.8

Inquiry: Return normalized RNA/DNA level with ligand (log10) for the following variant: `GCCUGC`
Reply text: 1.86
